These measurements were taken from paper PMC4384654.

Loss of potency on h-FAAH-1 vs r-FAAH reference
target: human FAAH-1 (Homo sapiens, UniProt O00519); assay: In vitro human FAAH fluorescent assay; assay type: biochemical; settings: h-FAAH-1 IC50 relative to r-FAAH IC50
Sequence (O00519 whole entry): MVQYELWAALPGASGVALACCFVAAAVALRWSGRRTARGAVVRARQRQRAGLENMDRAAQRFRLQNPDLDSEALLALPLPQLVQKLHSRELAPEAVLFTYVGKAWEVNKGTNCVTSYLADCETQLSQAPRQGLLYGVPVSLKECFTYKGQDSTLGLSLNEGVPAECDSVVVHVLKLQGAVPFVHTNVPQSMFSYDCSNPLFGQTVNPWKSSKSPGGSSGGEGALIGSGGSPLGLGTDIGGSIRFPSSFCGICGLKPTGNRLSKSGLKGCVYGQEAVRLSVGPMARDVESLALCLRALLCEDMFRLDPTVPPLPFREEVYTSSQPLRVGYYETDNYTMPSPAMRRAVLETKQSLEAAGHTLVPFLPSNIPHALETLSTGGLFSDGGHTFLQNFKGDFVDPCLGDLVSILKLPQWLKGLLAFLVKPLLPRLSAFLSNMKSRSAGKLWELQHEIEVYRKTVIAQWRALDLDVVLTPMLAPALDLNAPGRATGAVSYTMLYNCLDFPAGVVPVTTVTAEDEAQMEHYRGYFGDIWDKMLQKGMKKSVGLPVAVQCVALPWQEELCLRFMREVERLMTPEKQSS
Measured Parameter: Loss of potency on h-FAAH-1 vs r-FAAH

| Compound | Value |
| --- | --- |
| COc1cccc(Cn2cc(COC(=O)NCc3cn(Cc4ccccc4OC)nn3)nn2)c1 [Compound 39] | 4 to 10 fold |
| COc1ccc(Cn2cc(CNC(=O)OCc3cn(Cc4ccccc4OC)nn3)nn2)cc1 [Compound 38] | 4 to 10 fold |
| COc1cccc(Cn2cc(CNC(=O)OCc3cn(Cc4ccccc4OC)nn3)nn2)c1 [Compound 37] | 4 to 10 fold |

###

IC50 reference
target: FAAH prepared from rat brain homogenates (Rattus norvegicus, UniProt P97612); assay: In vitro rat FAAH radiometric assay; assay type: biochemical; details: read-out: r-FAAH IC50; rat brain homogenate, mean ± SEM (n=3)
Sequence (P97612 whole entry): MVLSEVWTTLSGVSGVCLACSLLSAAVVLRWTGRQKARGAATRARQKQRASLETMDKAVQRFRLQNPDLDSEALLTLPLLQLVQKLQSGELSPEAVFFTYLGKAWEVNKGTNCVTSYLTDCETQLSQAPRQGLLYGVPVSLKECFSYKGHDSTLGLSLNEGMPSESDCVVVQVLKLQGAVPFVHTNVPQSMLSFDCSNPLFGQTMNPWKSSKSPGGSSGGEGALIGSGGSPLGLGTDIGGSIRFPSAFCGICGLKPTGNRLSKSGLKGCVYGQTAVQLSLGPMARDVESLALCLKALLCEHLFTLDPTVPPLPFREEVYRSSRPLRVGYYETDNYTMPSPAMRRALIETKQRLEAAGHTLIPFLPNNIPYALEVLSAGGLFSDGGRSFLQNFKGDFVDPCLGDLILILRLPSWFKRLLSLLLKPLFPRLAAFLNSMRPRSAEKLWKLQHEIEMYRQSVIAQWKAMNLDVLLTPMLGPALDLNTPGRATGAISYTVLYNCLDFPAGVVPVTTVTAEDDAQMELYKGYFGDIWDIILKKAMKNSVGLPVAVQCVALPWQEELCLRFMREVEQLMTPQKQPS

| Compound | Uom | IC50 |
| --- | --- | --- |
| COc1cccc(Cn2cc(CNC(=O)OCc3cn(Cc4cccc(OC)c4)nn3)nn2)c1 [Compound 34b] | nM | 3.9 |
| COc1cc(Cn2cc(COC(=O)NC3CCCCC3)nn2)cc(OC)c1 | nM | 10.5 |
| N#Cc1cccc(Cn2cc(COC(=O)NC3CCCCC3)nn2)c1 [Compound 22b] | nM | 21.5 |
| O=C(NC1CCCCC1)OCc1cn(Cc2cccc(Cl)c2)nn1 [Compound 24b] | nM | 13.2 |
| N#Cc1ccc(Cn2cc(COC(=O)NC3CCCCC3)nn2)cc1 [Compound 22c] | nM | 2280 |
| O=C(NC1CCCCC1)OCc1cn(Cc2cc(F)cc(F)c2)nn1 | nM | 10.4 |
| COc1ccc(Cn2cc(CNC(=O)OCc3cn(Cc4cccc(OC)c4)nn3)nn2)cc1 | nM | 5.8 |
| O=C(NC1CCCCC1)OCc1cn(Cc2ccccc2Cl)nn1 [Compound 24a] | nM | 6.2 |
| COc1cccc(Cn2cc(COC(=O)NC3CCCCC3)nn2)c1 [Compound 26b] | nM | 11.8 |
| Cc1ccc(Cn2cc(COC(=O)NC3CCCCC3)nn2)cc1 [Compound 25c] | nM | 500 |
| O=C(NC1CCCCC1)Oc1cccc(-c2ccccc2)c1 [Compound 1a, URB524, reference compound] | nM | 5.7 |
| COc1cccc(Cn2cc(COC(=O)NC3CCCCC3)nn2)c1F | nM | 44.6 |
| O=C(NC1CCCCC1)OCc1cn(-c2ccccc2)nn1 | nM | 381 |
| O=C(NC1CCCCC1)OCc1cn(Cc2ccc(Cl)cc2)nn1 [Compound 24c] | nM | 215 |
| COc1cccc(Cn2cc(COC(=O)NCc3cn(Cc4ccccc4OC)nn3)nn2)c1 | nM | 9.8 |
